target: γ-secretase (Homo sapiens (Human)); assay: Cellular γ-secretase assay (Aβ42 secretion, AlphaLisa); conditions: inhibition of Aβ42 secretion; human neuroglioma H4 cells overexpressing human APP695 Swedish double mutation; 24 hr compound incubation
Attribute Measured: EC50 (nM)

Use the examples below as a reference point.
INSERT INTO assay_data (compound, target_entity, unit, recorded_measurement) VALUES
  ('CNc1nc(Nc2ccc(-n3cnc(C)n3)c(OC)c2)nc2c1C(C)(C)CN2c1ccc(F)cc1F', 'γ-secretase (Homo sapiens (Human))', 'nM', 8),
  ('CNc1nc(Nc2ccc(-n3cc(C)nc3C)c(F)c2)nc2c1C(C)(C)CN2c1ccc(F)cc1', 'γ-secretase (Homo sapiens (Human))', 'nM', 33);

(I) CNc1nc(Nc2cnc(-n3cnc(C)c3)c(F)c2)nc2c1C(C)(C)CCN2c1ccc(F)cc1
(II) CNc1nc(Nc2cnc(-n3cnc(C)c3)c(OC)c2)nc2c1C(C)(C)CN2c1ccc(F)cc1
Query: Of I and II , whose reported EC50 is numerically smaller? Identify your selection by its label.
Reply: II
